Source: the Immune Epitope Database (IEDB)

# TEST_SYSTEM: HLA-B*39:01
# EXPERIMENTAL_DETAILS: IEDB peptide-MHC binding, purified MHC/competitive/fluorescence; filed as Kd, often an IC50 or EC50 that approximates it; bounds were set here for any values at or beyond the usual limits of such assays
# PROTOCOL_CONDITIONS: source organism: Orthomarburgvirus marburgense
MEASUREMENT_KIND: pKd
pKd is a log-scale quantity: -log10 of the concentration expressed in molar.

So, `ARHGEYAPF` ? Its pKd was 5.96

###

# TEST_SYSTEM: HLA-B*48:01
# EXPERIMENTAL_DETAILS: IEDB peptide-MHC binding, purified MHC/direct/fluorescence; filed as Kd, often an IC50 or EC50 that approximates it; bounds were set here for any values at or beyond the usual limits of such assays
# PROTOCOL_CONDITIONS: source organism: Bacillus anthracis
pKd: −log10 of the molar value.
MEASUREMENT_KIND: pKd

So, `PRFGSCYFL` ? Its pKd was ≤ 4.70
